Hey, just so you know, these numbers are from patent US12384753B2.

pIC50 reference
- system: Recombinant human HSD17B13 (Homo sapiens (Human), UniProt Q7Z5P4)
- Sequence (Q7Z5P4 20-300): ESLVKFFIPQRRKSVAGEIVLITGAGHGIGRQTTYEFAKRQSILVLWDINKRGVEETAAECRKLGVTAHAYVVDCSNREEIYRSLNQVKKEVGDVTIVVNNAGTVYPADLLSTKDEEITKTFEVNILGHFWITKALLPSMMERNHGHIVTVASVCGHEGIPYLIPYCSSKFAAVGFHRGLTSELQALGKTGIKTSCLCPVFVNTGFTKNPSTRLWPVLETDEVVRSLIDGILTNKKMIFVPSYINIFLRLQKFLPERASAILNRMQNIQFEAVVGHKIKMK
- assay_overview: HSD17B13 rapid-fire mass spectrometry assay (RF/MS assay)
- assay_conditions: inhibition of HSD17B13; LTB4 10 μM, NAD+ 0.5 mM, RT 3 h; IC50 ranges A-E
pIC50: −log10 of the molar value.

CCC1CC=C(c2ccc(-c3nc(S(=O)(=O)Nc4cc(F)c(C(=O)O)cc4OC)cs3)c(C(F)(F)F)c2)CC1 (centres unmarked)    > 7.00
COc1cc(C(=O)O)c(F)cc1NS(=O)(=O)c1csc(-c2ccc([C@H]3CC[C@H](C(C)C)CC3)c(F)c2C)n1    > 7.00
COc1cc(C(=O)O)ccc1NS(=O)(=O)c1csc(-c2ccc(-c3ccc4c(c3)OCCO4)cc2)n1    > 7.00

QUERY: Retrieve pIC50 measured for COc1cc(C(=O)O)c(F)cc1NS(=O)(=O)c1coc(-c2ccc(C3CCC(C)(C)CC3)cc2)n1 and print it.
RESULT: > 7.00

###

- system: Recombinant human HSD17B13 (Homo sapiens (Human), UniProt Q7Z5P4)
- assay_overview: HSD17B13 rapid-fire mass spectrometry assay (RF/MS assay)
- assay_conditions: inhibition of HSD17B13; LTB4 10 μM, NAD+ 0.5 mM, RT 3 h; IC50 ranges A-E
pIC50: −log10 of the molar value.
property_label: pIC50

COCCOc1c(C2=CCC(C)(C)CC2)ccc(-c2nc(S(=O)(=O)Nc3cc(F)c(C(=O)O)cc3OC)cs2)c1F    6.30 to 7.00
COc1cc(C(=O)O)c(F)cc1NS(=O)(=O)c1csc(-c2ccc(C3CCC(C)(C)CC3)c(OC(C)C)c2F)n1    > 7.00
COc1cc(C(=O)O)ccc1NS(=O)(=O)c1ccc(-c2ccc(C3CCCCC3)cc2)c(F)c1    6.30 to 7.00
COc1cc(C(=O)O)ccc1NS(=O)(=O)N1Cc2ccc(-c3ccc(F)cc3)cc2C1 [Example 338]    6.30 to 7.00
COc1cc(C(=O)O)c(F)cc1NS(=O)(=O)c1csc(C#Cc2ccc(C(C)C)cc2)n1    > 7.00
Cn1nnnc1-c1ccc(NS(=O)(=O)c2cnc(-c3ccc(F)cc3)s2)cc1    4.00 to 6.00
COc1cc(C(=O)O)ccc1NS(=O)(=O)c1ccc(-c2cccc(-c3ccc(F)cc3)c2)s1    6.30 to 7.00

For the next question, use this compound.
QUERY: Look up and report measured pIC50 (Recombinant human HSD17B13 (Homo sapiens (Human), UniProt Q7Z5P4)) for the following compound: COc1cc(C(=O)O)ccc1NS(=O)(=O)c1csc(C#Cc2ccccc2)n1
RESULT: 6.30 to 7.00

###

- system: Recombinant human HSD17B13 (Homo sapiens (Human))
- assay_overview: HSD17B13 rapid-fire mass spectrometry assay (RF/MS assay)
- assay_conditions: inhibition of HSD17B13; LTB4 10 μM, NAD+ 0.5 mM, RT 3 h; IC50 ranges A-E
pIC50: −log10 of the molar value.
property_label: pIC50

Guide cases for pIC50, answers given:
COc1cc(C(=O)O)ccc1NS(=O)(=O)c1csc(-c2ccc(C(=O)O)cc2)n1    4.00 to 6.00
COc1cc(C(=O)O)c(F)cc1NS(=O)(=O)c1csc(-c2cc(F)c(C3CCC(C)(C)CC3)c(F)c2)n1    6.30 to 7.00
COc1cc(C(=O)O)c(F)cc1NS(=O)(=O)c1csc(-c2ccc(C3=CCC(C)(C)CC3)c(F)c2C(F)F)n1    > 7.00
COc1cc(C(=O)O)ccc1NS(=O)(=O)c1csc(C#Cc2ccc(C(F)(F)F)cc2)n1    > 7.00

QUERY: Report the value of pIC50 obtained on Recombinant human HSD17B13 (Homo sapiens (Human)) for COc1cc(C(=O)O)ccc1NS(=O)(=O)c1csc(C2CCC(C)(C)CC2)n1 .
RESULT: 6.00 to 6.30

QUERY: Answer briefly: pIC50 recorded on Recombinant human HSD17B13 (Homo sapiens (Human)) for COc1cc(C(=O)O)c(F)cc1NS(=O)(=O)c1csc(-c2ccc([C@H]3CC[C@H](C(C)C)CC3)c(F)c2F)n1
RESULT: > 7.00

QUERY: Name the recorded pIC50 of O=C(O)c1ccc(NS(=O)(=O)c2csc(N3CCOCC3)n2)cc1 , assay system Recombinant human HSD17B13 (Homo sapiens (Human)).
RESULT: 4.00 to 6.00

QUERY: Quote Recombinant human HSD17B13 (Homo sapiens (Human)) pIC50 for entry COc1cc(C(=O)O)ccc1NS(=O)(=O)c1csc(NCCc2ccccc2)n1 .
RESULT: 4.00 to 6.00

QUERY: Would you please give the reported pIC50 of COc1cc(C(=O)O)ccc1NS(=O)(=O)N1CCN(c2nccs2)CC1 with Recombinant human HSD17B13 (Homo sapiens (Human))?
RESULT: < 4.00

QUERY: Tell me pIC50 of O=C(O)C1CCN(S(=O)(=O)c2cnc(-c3ccc(F)cc3)s2)CC1 when tested on Recombinant human HSD17B13 (Homo sapiens (Human)).
RESULT: 4.00 to 6.00
